Reported pIC50 on PAK3 (Homo sapiens, UniProt O75914) for assorted compounds, compiled from publications.
Sequence (O75914 whole entry): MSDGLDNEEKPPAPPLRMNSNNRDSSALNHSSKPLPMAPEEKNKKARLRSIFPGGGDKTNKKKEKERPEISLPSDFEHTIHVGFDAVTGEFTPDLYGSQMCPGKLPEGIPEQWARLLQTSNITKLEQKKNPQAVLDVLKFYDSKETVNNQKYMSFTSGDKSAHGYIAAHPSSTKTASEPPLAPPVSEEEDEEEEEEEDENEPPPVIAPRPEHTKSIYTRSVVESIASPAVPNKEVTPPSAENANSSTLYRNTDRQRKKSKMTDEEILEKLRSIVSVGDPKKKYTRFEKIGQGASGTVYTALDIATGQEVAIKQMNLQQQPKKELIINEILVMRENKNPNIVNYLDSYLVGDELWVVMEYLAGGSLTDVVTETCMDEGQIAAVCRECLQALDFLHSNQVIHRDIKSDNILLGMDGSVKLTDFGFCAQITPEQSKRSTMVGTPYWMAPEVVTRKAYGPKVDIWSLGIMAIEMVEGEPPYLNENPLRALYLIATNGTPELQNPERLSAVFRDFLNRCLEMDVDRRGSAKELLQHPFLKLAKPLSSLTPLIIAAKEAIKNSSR
pIC50: −log10 of the molar value.

Query: Please report the measured pIC50 for "CN(C)CCc1ccc(Nc2ncc3cc(-c4cc(N(C)C)c(-c5cccnc5)cc4Cl)c(=O)n(C)c3n2)cc1" tested on PAK3 (Homo sapiens, UniProt O75914).
Response: > 7.30

Query: Please report the measured pIC50 for "CN1CCC(c2ccc(Nc3ncc4cc(-c5cc(-c6cccnc6)ccc5Cl)c(=O)n(C)c4n3)cc2)CC1" tested on PAK3 (Homo sapiens, UniProt O75914).
Response: 5.30 to 6.30

Query: Please report the measured pIC50 for "CCn1c(=O)c(-c2ccc(-c3noc(C)n3)cc2Cl)cc2cnc(Nc3ccc(CCN4CCCC4)cc3)nc21" tested on PAK3 (Homo sapiens, UniProt O75914).
Response: > 7.30

Query: Please report the measured pIC50 for "CCn1c(=O)c(-c2ccc(-c3cncc(C)n3)cc2Cl)cc2cnc(NCCCO)nc21" tested on PAK3 (Homo sapiens, UniProt O75914).
Response: 6.30 to 7.30

Query: Please report the measured pIC50 for "Cc1cc(-c2nccnc2C)ccc1-c1cc2cnc(Nc3ccc(C4CCN(C)CC4)cc3)nc2n(C)c1=O" tested on PAK3 (Homo sapiens, UniProt O75914).
Response: 6.30 to 7.30

Query: Please report the measured pIC50 for CCn1c(=O)c(-c2ccc(-c3noc(C)n3)cc2Cl)cc2cnc(Nc3ccc(C4CCNC4)c(F)c3)nc21 (stereo not shown) tested on PAK3 (Homo sapiens, UniProt O75914).
Response: > 7.30

Query: Please report the measured pIC50 for "CCn1c(=O)c(-c2ccc(-c3cncs3)cc2)cc2cnc(Nc3ccc(N4CCN(C)CC4)cc3)nc21" tested on PAK3 (Homo sapiens, UniProt O75914).
Response: < 5.30

Query: Please report the measured pIC50 for "CN1CCN(c2ccc(Nc3ncc4cc(-c5ccccc5)c(=O)n(Cc5ccccc5C(F)(F)F)c4n3)cc2)CC1" tested on PAK3 (Homo sapiens, UniProt O75914).
Response: > 6.00

Query: Please report the measured pIC50 for "CCn1c(=O)c(-c2ccc(-c3cncnc3)cc2Cl)cc2cnc(Nc3ccc(N4CCN(C(C)C)CC4)cc3)nc21" tested on PAK3 (Homo sapiens, UniProt O75914).
Response: > 7.30

Query: Please report the measured pIC50 for "CCN(CC)CCc1ccc(Nc2ncc3cc(-c4ccc(-c5cccnc5F)cc4Cl)c(=O)n(CC)c3n2)cc1" tested on PAK3 (Homo sapiens, UniProt O75914).
Response: > 7.30

Query: Please report the measured pIC50 for "CCn1c(=O)c(-c2ccc(-c3ccc(C(=O)NC)nc3)cc2Cl)cc2cnc(Nc3ccc(C4CCN(C)CC4)cc3)nc21" tested on PAK3 (Homo sapiens, UniProt O75914).
Response: < 5.30

Query: Please report the measured pIC50 for "CN1CCN(c2ccc(Nc3ncc4ccc(=O)n(Cc5ccccc5-c5cccs5)c4n3)cc2)CC1" tested on PAK3 (Homo sapiens, UniProt O75914).
Response: > 6.00

Query: Please report the measured pIC50 for "CC(=O)Nc1cc(-c2cc3cnc(Nc4ccc(CCN(C)C)cc4)nc3n(C)c2=O)c(Cl)cc1-c1cccnc1" tested on PAK3 (Homo sapiens, UniProt O75914).
Response: 6.30 to 7.30

Query: Please report the measured pIC50 for "COc1cc(Nc2nccc(-c3ccc(NCCN)nc3)n2)cc(OC)c1OC" tested on PAK3 (Homo sapiens, UniProt O75914).
Response: 5.00 to 6.00

Query: Please report the measured pIC50 for CCn1c(=O)c(-c2ccc(-c3cncnc3)cc2Cl)cc2cnc(Nc3ccc(C4CNCCO4)cc3)nc21 (stereo not shown) tested on PAK3 (Homo sapiens, UniProt O75914).
Response: > 7.30

Query: Please report the measured pIC50 for "CN1CCN(c2ccc(Nc3ncc4ccc(=O)n(Cc5ccccc5S(=O)(=O)N5CCOCC5)c4n3)cc2)CC1" tested on PAK3 (Homo sapiens, UniProt O75914).
Response: > 6.00

* * *

Reported IC50 on PAK3 (Homo sapiens, UniProt O75914) for assorted molecules, compiled from publications.

Query: Please report the measured IC50 for "CN1CCN(c2ccc(Nc3ncc4ccc(=O)n(Cc5c(F)cccc5Cl)c4n3)cc2)CC1" tested on PAK3 (Homo sapiens, UniProt O75914).
Response: < 1000 nM

Query: Please report the measured IC50 for "CCn1c(=O)c(-c2ccc(-c3cncnc3)cc2Cl)cc2cnc(Nc3ccc(N4CCNCC4)c(F)c3)nc21" tested on PAK3 (Homo sapiens, UniProt O75914).
Response: < 50 nM

Query: Please report the measured IC50 for "CCn1c(=O)c(-c2ccc(-c3cccnc3)cc2Cl)cc2cnc(Nc3ccc(N4CCNCC4)c(F)c3)nc21" tested on PAK3 (Homo sapiens, UniProt O75914).
Response: < 50 nM

Query: Please report the measured IC50 for "CCn1c(=O)c(-c2ccc(-c3cnc(C)s3)cc2Cl)cc2cnc(Nc3ccc(CCN4CCCC4)cc3)nc21" tested on PAK3 (Homo sapiens, UniProt O75914).
Response: < 50 nM

Query: Please report the measured IC50 for "CCn1c(=O)c(-c2ccc(-c3cnc(C)s3)cc2Cl)cc2cnc(Nc3ccc(C4CCN(C)CC4)cc3)nc21" tested on PAK3 (Homo sapiens, UniProt O75914).
Response: < 50 nM

Query: Please report the measured IC50 for "CCn1c(=O)c(-c2ccc(-c3ccc(C)nc3F)cc2Cl)cc2cnc(Nc3ccc(C4CCN(C)CC4)cc3)nc21" tested on PAK3 (Homo sapiens, UniProt O75914).
Response: 50 to 500 nM

Query: Please report the measured IC50 for "CCn1c(=O)c(-c2nc(C3CCN(C)CC3)sc2C)cc2cnc(Nc3ccc(N4CCN(C)CC4)cc3)nc21" tested on PAK3 (Homo sapiens, UniProt O75914).
Response: > 5000 nM

Query: Please report the measured IC50 for "Cc1ncccc1-c1ccc(-c2cc3cnc(Nc4ccc(C5CCNCC5)cc4)nc3n(C)c2=O)c(Cl)c1" tested on PAK3 (Homo sapiens, UniProt O75914).
Response: 50 to 500 nM

Query: Please report the measured IC50 for "CC(=O)N1CCN(c2ccc(Nc3nccc(-c4ccc(NCCN)nc4)n3)cc2)CC1" tested on PAK3 (Homo sapiens, UniProt O75914).
Response: > 10000 nM

Query: Please report the measured IC50 for "CN1CCC(c2ccc(Nc3ncc4cc(-c5cc(-c6cccnc6N(C)C)ccc5Cl)c(=O)n(C)c4n3)cc2)CC1" tested on PAK3 (Homo sapiens, UniProt O75914).
Response: > 5000 nM

Query: Please report the measured IC50 for "CCn1c(=O)c(-c2ccc(-c3cc(C(F)(F)F)ncn3)cc2Cl)cc2cnc(Nc3ccc(C4CCN(C)CC4)cc3)nc21" tested on PAK3 (Homo sapiens, UniProt O75914).
Response: 50 to 500 nM

Query: Please report the measured IC50 for "CCn1c(=O)c(-c2ccc(-c3ccc(C(=O)NC)nc3)cc2Cl)cc2cnc(Nc3ccc(N4CCN(C)CC4)cc3)nc21" tested on PAK3 (Homo sapiens, UniProt O75914).
Response: > 5000 nM

Query: Please report the measured IC50 for "CCn1c(=O)c(-c2ccc(C3CC3)cc2Cl)cc2cnc(Nc3ccc(N4CCN(C)CC4)cc3)nc21" tested on PAK3 (Homo sapiens, UniProt O75914).
Response: 50 to 500 nM

Query: Please report the measured IC50 for "CCn1c(=O)c(-c2ccc(-c3cccnc3)cc2Cl)cc2cnc(Nc3ccc(N4CCN(C(C)C)CC4)c(F)c3)nc21" tested on PAK3 (Homo sapiens, UniProt O75914).
Response: < 50 nM

Query: Please report the measured IC50 for "CCn1c(=O)c(-c2ccc(-c3cccnc3C)cc2Cl)cc2cnc(Nc3ccc(C4CCN(C)CC4)cc3)nc21" tested on PAK3 (Homo sapiens, UniProt O75914).
Response: < 50 nM

Query: Please report the measured IC50 for "CCn1c(=O)c(-c2ccc(-c3nnco3)cc2Cl)cc2cnc(Nc3ccc(N4CCN(C)CC4)cc3)nc21" tested on PAK3 (Homo sapiens, UniProt O75914).
Response: < 50 nM

* * *

Reported IC50 on PAK3 (Homo sapiens) for assorted compounds, compiled from publications.

Query: Consider the compound "CCn1c(=O)c(-c2ccc(-c3cccnc3C)cc2)cc2cnc(Nc3ccc(C4CCN(C)CC4)cc3)nc21" . State its measured IC50.
Response: 0.5 to 5 µM

Query: Consider the compound "CCn1c(=O)c(-c2ccc(-c3cccnc3C)cc2C)cc2cnc(Nc3ccc(C4CCN(C)CC4)cc3)nc21" . State its measured IC50.
Response: 0.05 to 0.5 µM

Query: Consider the compound "Cc1ncc(-c2ccc(-c3cc4cnc(Nc5ccc(C6CCNCC6)cc5)nc4n(C)c3=O)c(Cl)c2)s1" . State its measured IC50.
Response: 0.05 to 0.5 µM

Query: Consider the compound "CCn1c(=O)c(-c2ccc(-c3nccnc3C)cc2Cl)cc2cnc(NCCO)nc21" . State its measured IC50.
Response: 0.05 to 0.5 µM
